Tgt: human MT2 receptor (Homo sapiens, UniProt P49286)
Construct: melatonin MT1 and MT2 receptors cDNA were individually subcloned into pcDNA3 and introduced into NIH-3T3 cells using Lipofectamine; expressed in transfected cells
Sequence (P49286 whole entry): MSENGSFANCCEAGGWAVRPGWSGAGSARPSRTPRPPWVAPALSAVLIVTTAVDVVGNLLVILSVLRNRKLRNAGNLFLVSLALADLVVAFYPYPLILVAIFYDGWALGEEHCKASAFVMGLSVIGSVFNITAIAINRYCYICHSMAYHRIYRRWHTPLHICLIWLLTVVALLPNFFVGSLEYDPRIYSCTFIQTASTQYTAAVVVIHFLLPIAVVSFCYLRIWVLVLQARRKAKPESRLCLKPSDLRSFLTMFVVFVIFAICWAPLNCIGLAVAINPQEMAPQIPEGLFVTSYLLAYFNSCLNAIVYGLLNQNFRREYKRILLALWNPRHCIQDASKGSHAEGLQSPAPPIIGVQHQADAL
Test summary: Melatonin receptor binding assay (MT2), 2-[125I]-iodomelatonin
Measurement setup: membrane homogenates of NIH-3T3 cells expressing MT2; 2-[125I]-iodomelatonin 0.2 nM; 37° C., 1 hour; read-out: MT2 IC50
Record form. Attribute: IC50. Fill in for each entry.

**Q:** I am curious: what IC50 value has been reported for COc1cc2c(cc1Br)CCN(C(=O)c1cccc([N+](=O)[O-])c1)C2CC(c1ccccc1)c1ccccc1 (stereo not drawn) [Example 37] ?
**A:** 100 to 1000 nM

**Q:** Now consider CCC(=O)N1CCc2cc(OC)c(OC)cc2C1CC(c1ccccc1)c1ccccc1 (stereo not drawn) [Example 3] and answer again.
**A:** < 100 nM

**Q:** CCCC(=O)N1CCc2cc3c(cc2C1CCc1ccc(Cl)cc1)OCO3 (stereo not drawn) [Example 144] , same question.
**A:** < 100 nM

**Q:** Same again, this time with CCCCCC(=O)N1CCc2cc(OC)c(OC)cc2C1CCc1ccccc1 (stereo not drawn) [Example 60]
**A:** 100 to 1000 nM

**Q:** Let us now turn to COc1cc2c(cc1OC)C(CCc1ccccc1)N(C(=O)C1CCC1)CC2 (stereo not drawn) [Example 57]
**A:** < 100 nM

**Q:** Please answer likewise for COc1cccc2c1CCN(C(C)=O)C2CC(c1ccccc1)c1ccccc1 (stereo not drawn) [Example 29]
**A:** 100 to 1000 nM

**Q:** Another compound: COc1cc2c(cc1OC)C(CC(c1ccc(Cl)cc1)c1ccc(Cl)cc1)N(C(C)=O)CC2 (stereo not drawn) [Example 85]
**A:** < 100 nM

**Q:** Cool, now CCCCCC(=O)N1CCc2cc(Br)c(OC)cc2C1CC(c1ccccc1)c1ccccc1 (stereo not drawn) [Example 34]
**A:** 100 to 1000 nM

**Q:** Can you check COc1cc2c(cc1OC)C(CCc1ccccc1)N(C(C)=O)CC2 (stereo not drawn) [Example 14] next?
**A:** < 100 nM

The reported numbers originate from patent US6908931B2.
